Recorded ELISA luminescence signal at 10 nmol/L peptide, relative to SEQ ID NO: 47 (=1) values for a group of binders are listed next.
molecular target: T1, Recombinant Human FGFR2 alpha (IIIc) Fc Chimera Protein, CF (R&D systems, 712-FR-050) (human, UniProt P21802 22-377); assay: ELISA on plate-bound FGFR2-Fc
T1 construct: bought; not shown: Fc part of the chimera
T1 sequence (P21802 22-377, change not shown): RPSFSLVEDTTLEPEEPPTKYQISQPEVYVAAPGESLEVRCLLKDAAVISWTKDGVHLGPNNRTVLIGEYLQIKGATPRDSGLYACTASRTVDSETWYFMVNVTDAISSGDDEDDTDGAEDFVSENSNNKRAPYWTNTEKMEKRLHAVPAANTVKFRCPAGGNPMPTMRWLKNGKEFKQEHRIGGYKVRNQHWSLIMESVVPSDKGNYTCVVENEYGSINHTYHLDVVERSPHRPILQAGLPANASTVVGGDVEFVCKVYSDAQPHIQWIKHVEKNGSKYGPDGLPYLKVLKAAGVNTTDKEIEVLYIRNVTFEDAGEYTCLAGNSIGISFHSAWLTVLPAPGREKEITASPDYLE
Bridge positions count the residues as written; N and C are the ends. Ends that are not written are not given here. COCH2 = acetyl group that carries the bridge

# count of solved cases: 3
DCEENYLDPEQYQYFIYFK(COCH2)Y (thioether 2-19) [cyclic peptide SEQ ID NO: 147] | ≥ 0.7 ratio
YCEENYLDPEQYQYYIYFK(COCH2)Y (thioether 2-19 (inferred)) [cyclic peptide SEQ ID NO: 276] | 0.5 to 0.7 ratio
KCPQNFINPVQWRYFQAYKN (not fully specified; thioether ring (C)-(K(acetyl))) [cyclic peptide SEQ ID NO: 66] | ≥ 0.7 ratio

Ask: Tell me the measured ELISA luminescence signal at 10 nmol/L peptide, relative to SEQ ID NO: 47 (=1) of YCEENYLDPEHYQYFIYFK(COCH2)Y (thioether 2-19 (inferred)) [cyclic peptide SEQ ID NO: 251] , please.
Result: 0.1 to 0.5 ratio

Ask: Now consider YCEENYLDPEQYVYFIYFK(COCH2)Y (thioether 2-19 (inferred)) [cyclic peptide SEQ ID NO: 260] and answer again.
Result: ≥ 0.7 ratio

Ask: Now consider YCEENYLDPEQYFYFIYFK(COCH2)Y (thioether 2-19 (inferred)) [cyclic peptide SEQ ID NO: 261] and answer again.
Result: 0.5 to 0.7 ratio
